Test system: Mycobacterium tuberculosis
assay.info: Inhibition of Mycobacterium tuberculosis Lipy assessed as pomegranate oil TAG lipolysis at 4 times molar excess of inhibitor concentration related to 1 mole of enzyme incubated for 30 mins by microtitre plate assay
Would you mind labelling by inhibition? At or over 20% is 1 (yes), under is 0 (no).

Exercise: Exam item: decide whether the reported inhibition for COc1nn(-c2ccccc2)c(=O)o1 is at least 20%.
Solution: 1 (yes)

Exercise: Exam item: decide whether the reported inhibition for COc1nn(-c2cccc(Oc3ccccc3)c2)c(=O)o1 is at least 20%.
Solution: 1 (yes)

Exercise: Exam item: decide whether the reported inhibition for CCOc1nn(-c2cccc(Oc3ccccc3)c2)c(=O)o1 is at least 20%.
Solution: 1 (yes)

---

Tested on: Mycobacterium tuberculosis
assay.info: Inhibition of Mycobacterium tuberculosis Lipy incubated for 30 mins by UV spectrophotometric analysis
Provide the recorded log10 I50 for the entries that follow.
Lab note - I50 converted to log10 from values in molar excess.

Consider the reported log10 I50 for these compounds:
{"columns": ["compound", "experimental.target", "log10 I50"],
 "data": [
  ["CC(C)COc1nn(-c2ccccc2)c(=O)o1", "Mycobacterium tuberculosis", 0.96],
  ["CCOc1nn(-c2cccc(Oc3ccccc3)c2)c(=O)o1", "Mycobacterium tuberculosis", 0.81],
  ["CCCCCCCCCCCCOc1nn(-c2cccc(Oc3ccccc3)c2)c(=O)o1", "Mycobacterium tuberculosis", -0.11],
  ["CCCCCCOc1nn(-c2ccc(Oc3ccccc3)cc2)c(=O)o1", "Mycobacterium tuberculosis", 0.46],
  ["CCCCCCCCOc1nn(-c2cccc(Oc3ccccc3)c2)c(=O)o1", "Mycobacterium tuberculosis", -0.15]
]}

Give one value of log10 I50 per listed compound.
1. COc1nn(-c2ccccc2)c(=O)o1
2. CC(C)COc1nn(-c2cccc(Oc3ccccc3)c2)c(=O)o1
3. CCCCCC(CC)Oc1nn(-c2cccc(Oc3ccccc3)c2)c(=O)o1 (stereo not given)
4. CCCCCCOc1nn(-c2cccc(Oc3ccccc3)c2)c(=O)o1
5. COCCOc1nn(-c2cccc(Oc3ccccc3)c2)c(=O)o1
6. O=c1oc(OCCOCc2ccccc2)nn1-c1ccccc1
7. COc1nn(-c2cccc(Oc3ccccc3)c2)c(=O)o1
8. CCCCCCCCCCOc1nn(-c2cccc(Oc3ccccc3)c2)c(=O)o1

Solution:
1: 1.04; 2: 0.59; 3: -0.14; 4: 0.52; 5: -0.16; 6: -0.21; 7: 0.38; 8: -0.17

Give one value of log10 I50 per listed compound.
1. O=c1oc(OCCOCc2ccccc2)nn1-c1cccc(Oc2ccccc2)c1
2. CCCCCCCCCCC[C@@H](C[C@@H]1OC(=O)[C@H]1CCCCCC)OC(=O)[C@H](CC(C)C)NC=O
3. O=c1oc(OCCOCc2ccccc2)nn1-c1ccc(Oc2ccccc2)cc1
4. COc1nn(-c2ccc(Oc3ccccc3)cc2)c(=O)o1

Solution:
1. -0.14
2. 0.85
3. -0.23
4. -0.03

---

Tested on: Mycobacteroides abscessus
assay.info: Antibacterial activity against Mycobacterium abscessus CIP 104536T smooth morphotype incubated for 1 to 14 days
Type: functional
particulars: time 1-14 day
Provide the recorded MIC50 for the entries that follow.
Answers are plain numbers, in µM.

Consider the reported MIC50 for these molecules:
{"columns": ["molecule", "MIC50 / µM"],
 "data": [
  ["CCCCCCCCCCC1=C(C(=O)OC)CCOP(=O)(OC)O1 (stereo unspecified)", 85],
  ["C[C@@H](O)[C@H]1C(=O)N2C(C(=O)O)=C(SCCNC=N)C[C@H]12 [IMIPENEM ANHYDROUS]", 11.3]
]}

Exercise: // MIC50 lookup, key: CCCCCCCCCCCCCCCCOP1(=O)OCCC(C(=O)OC)=C(C)O1 (stereo unspecified)
Solution: 12.7
